test system: RARa homodimer (NR concentration 270 nM); assay: PBM binding z-score (relative to random genomic background probes); higher = stronger binding; sequences stand for … in GC…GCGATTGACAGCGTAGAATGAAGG
Returns one of Condition met or Condition not met; Condition met when PBM binding z-score is >= 0.5.

Below are worked cases with known answers.
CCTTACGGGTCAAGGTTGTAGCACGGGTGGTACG	Condition not met
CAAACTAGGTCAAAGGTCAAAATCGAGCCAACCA	Condition met
CTATGTAGGTTAAGGGGGTAATTCAGTTTGAAAG	Condition met
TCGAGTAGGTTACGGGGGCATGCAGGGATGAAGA	Condition met
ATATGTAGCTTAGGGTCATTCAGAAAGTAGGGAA	Condition met

Q: Does the reported PBM binding z-score for "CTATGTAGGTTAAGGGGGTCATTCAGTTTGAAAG" fall at or above the 0.5 mark?
A: Condition met

Q: Does the reported PBM binding z-score for "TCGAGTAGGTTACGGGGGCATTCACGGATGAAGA" fall at or above the 0.5 mark?
A: Condition not met

Q: Is PBM binding z-score for "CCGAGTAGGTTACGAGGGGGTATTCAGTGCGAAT" at or above 0.5?
A: Condition not met

Q: Could you verify whether the entry "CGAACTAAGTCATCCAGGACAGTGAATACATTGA" shows PBM binding z-score of no less than 0.5?
A: Condition not met

Q: Confirm if PBM binding z-score reported for the sequence "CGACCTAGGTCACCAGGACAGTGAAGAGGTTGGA" is 0.5 or above.
A: Condition not met

Q: Given "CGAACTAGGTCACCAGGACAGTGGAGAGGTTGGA" , state whether its PBM binding z-score is at least 0.5.
A: Condition not met

Q: Can "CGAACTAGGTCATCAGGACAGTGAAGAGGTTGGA" be said to have PBM binding z-score at or above 0.5?
A: Condition met

====

tested on: PXR homodimer (NR concentration 270 nM); assay: PBM binding z-score (relative to random genomic background probes); higher = stronger binding; sequences stand for … in GC…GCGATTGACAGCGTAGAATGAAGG
The sequences listed here are annotated with their PBM binding z-score.
// no unit, no text: just the number

Example cases with answers are listed next.
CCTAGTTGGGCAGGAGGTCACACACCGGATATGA	0.916
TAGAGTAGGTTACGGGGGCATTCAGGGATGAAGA	2.11
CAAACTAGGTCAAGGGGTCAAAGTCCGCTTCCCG	1.78

Q: Find the recorded PBM binding z-score belonging to "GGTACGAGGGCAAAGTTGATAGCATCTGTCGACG" and report it.
A: 0.0381

Q: Using the record for "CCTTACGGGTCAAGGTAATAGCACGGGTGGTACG" , report its PBM binding z-score.
A: 0.213

Q: // returns reported PBM binding z-score for input "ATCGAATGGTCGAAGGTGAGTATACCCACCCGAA"
A: -0.408

====

system: PPARa:RXRa (NR concentration 270 nM, RXRa partner concentration 90 nM); assay: PBM binding z-score (relative to random genomic background probes); higher = stronger binding; sequences stand for … in GC…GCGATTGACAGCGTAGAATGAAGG
Values of PBM binding z-score greater than or equal to 4 map to met; values below map to not met.

Example entries begin here.
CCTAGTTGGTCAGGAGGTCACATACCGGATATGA	not met
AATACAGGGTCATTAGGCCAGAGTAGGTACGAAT	met
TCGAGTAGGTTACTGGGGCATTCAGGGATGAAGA	not met
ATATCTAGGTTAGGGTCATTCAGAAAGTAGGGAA	met
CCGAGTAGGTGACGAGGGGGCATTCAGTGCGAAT	not met
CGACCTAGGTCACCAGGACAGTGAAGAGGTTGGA	met

Q: Is it the case that "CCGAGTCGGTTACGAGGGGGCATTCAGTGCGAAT" has PBM binding z-score reaching or exceeding 4?
A: not met

Q: Check this sequence for PBM binding z-score at or above 4: "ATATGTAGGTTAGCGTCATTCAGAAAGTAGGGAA"
A: not met

Q: Has "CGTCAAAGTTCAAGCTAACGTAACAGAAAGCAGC" a recorded PBM binding z-score greater than or equal to 4?
A: met

Q: State whether the measured PBM binding z-score reaches 4, counting equality as reaching it, for "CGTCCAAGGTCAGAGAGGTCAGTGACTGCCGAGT"
A: met

Q: Is the recorded value of PBM binding z-score equal to or greater than 4 for this sequence? "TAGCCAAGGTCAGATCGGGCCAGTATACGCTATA"
A: not met

Q: API: above_or_equal(metric=PBM binding z-score, cutoff=4) for item "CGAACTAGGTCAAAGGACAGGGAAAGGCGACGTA"
A: met
